Reference source: patent US7572797B2

Quick reference: Selectivity Ratio of the listed items.
biological target: Human Nav1.8 (Homo sapiens, UniProt Q9Y5Y9); construct: expressed in transfected cells; experiment: VIPR assay for Nav1.8 (FRET membrane potential, deltamethrin as opener); assay type: cell-based; details: TTX-S IC50 / NaV1.8 IC50; manual dissolution procedure
Sequence (Q9Y5Y9 whole entry): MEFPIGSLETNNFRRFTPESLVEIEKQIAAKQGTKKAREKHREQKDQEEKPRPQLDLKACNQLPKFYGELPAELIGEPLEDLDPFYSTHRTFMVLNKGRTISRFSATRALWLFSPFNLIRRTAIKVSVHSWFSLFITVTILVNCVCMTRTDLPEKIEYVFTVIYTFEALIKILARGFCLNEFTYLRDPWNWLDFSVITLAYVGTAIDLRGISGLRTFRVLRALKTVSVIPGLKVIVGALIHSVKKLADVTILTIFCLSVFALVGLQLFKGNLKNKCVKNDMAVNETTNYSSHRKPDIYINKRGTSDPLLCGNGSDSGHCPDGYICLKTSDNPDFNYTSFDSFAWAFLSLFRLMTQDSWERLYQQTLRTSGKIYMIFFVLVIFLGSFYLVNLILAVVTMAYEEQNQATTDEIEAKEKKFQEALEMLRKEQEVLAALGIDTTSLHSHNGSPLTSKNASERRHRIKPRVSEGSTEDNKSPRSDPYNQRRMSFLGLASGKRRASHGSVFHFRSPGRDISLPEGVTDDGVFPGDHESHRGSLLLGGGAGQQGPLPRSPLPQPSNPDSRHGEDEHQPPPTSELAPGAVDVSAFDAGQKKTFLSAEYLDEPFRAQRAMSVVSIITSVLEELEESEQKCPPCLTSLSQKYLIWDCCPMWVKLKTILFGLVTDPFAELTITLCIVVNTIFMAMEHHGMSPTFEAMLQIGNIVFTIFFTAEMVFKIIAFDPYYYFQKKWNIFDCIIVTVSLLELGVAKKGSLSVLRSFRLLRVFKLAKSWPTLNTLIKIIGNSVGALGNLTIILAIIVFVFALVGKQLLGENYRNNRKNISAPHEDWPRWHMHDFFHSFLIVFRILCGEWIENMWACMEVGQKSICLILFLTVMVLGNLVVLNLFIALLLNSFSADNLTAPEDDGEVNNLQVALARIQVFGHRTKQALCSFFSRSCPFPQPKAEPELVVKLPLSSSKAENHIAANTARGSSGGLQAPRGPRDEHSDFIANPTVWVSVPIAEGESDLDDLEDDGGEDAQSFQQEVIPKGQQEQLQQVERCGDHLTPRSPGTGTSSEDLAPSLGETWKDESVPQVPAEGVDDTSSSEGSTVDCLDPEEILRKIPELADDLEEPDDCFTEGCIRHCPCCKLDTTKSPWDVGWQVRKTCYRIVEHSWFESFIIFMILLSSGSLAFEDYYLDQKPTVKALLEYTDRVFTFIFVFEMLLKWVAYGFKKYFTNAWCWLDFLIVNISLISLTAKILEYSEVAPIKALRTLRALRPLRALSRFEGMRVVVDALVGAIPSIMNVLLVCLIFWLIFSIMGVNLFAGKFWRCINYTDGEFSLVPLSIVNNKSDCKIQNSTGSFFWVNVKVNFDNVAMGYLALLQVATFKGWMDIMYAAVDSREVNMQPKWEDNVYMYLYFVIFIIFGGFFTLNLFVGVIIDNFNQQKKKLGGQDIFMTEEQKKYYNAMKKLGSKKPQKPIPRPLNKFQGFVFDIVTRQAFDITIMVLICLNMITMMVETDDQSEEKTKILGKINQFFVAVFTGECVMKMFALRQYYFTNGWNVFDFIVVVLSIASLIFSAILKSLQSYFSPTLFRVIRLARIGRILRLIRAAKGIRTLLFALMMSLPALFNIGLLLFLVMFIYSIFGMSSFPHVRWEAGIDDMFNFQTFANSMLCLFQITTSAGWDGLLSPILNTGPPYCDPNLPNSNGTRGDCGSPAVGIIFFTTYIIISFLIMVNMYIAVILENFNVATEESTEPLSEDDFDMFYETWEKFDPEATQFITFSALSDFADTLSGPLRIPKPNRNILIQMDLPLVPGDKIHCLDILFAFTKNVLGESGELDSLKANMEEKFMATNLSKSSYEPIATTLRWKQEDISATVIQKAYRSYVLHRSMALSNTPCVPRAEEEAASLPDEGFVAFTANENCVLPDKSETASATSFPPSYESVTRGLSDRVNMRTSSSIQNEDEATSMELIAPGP
Write the number on its own, no unit after it.

1) Cc1nocc1C(=O)Nc1cnc(-c2cc(Cl)ccc2Cl)c(N)n1 [Example 20]
66.5
2) Cn1nccc1C(=O)Nc1cnc(-c2cc(Cl)cc(Cl)c2Cl)c(N)n1 [Example 1]
11.4
3) Cc1oncc1C(=O)Nc1cnc(-c2cc(Cl)cc(Cl)c2Cl)c(N)n1 [Example 14]
12.7

Please find the next molecule below.
**Query** Which value of Selectivity Ratio has been reported for Cn1nccc1C(=O)Nc1cnc(-c2cc(Cl)ccc2Cl)c(N)n1 [Example 7] in the records?
**Result** 3.79

---

biological target: Human Nav1.8 (Homo sapiens, UniProt Q9Y5Y9); construct: expressed in transfected cells; assay: VIPR assay for Nav1.8 (FRET membrane potential, deltamethrin as opener); assay type: cell-based; conditions: HEK293 cells expressing human Nav1.8; automated dissolution procedure; average of replicates
READOUT_KIND: IC50

Answered examples (3):
1. COCCn1nccc1C(=O)Nc1cnc(-c2ccccc2Cl)c(N)n1 [Example 56]
> 26.7 µM
2. COc1ccc(Cl)c(-c2ncc(NC(=O)c3cnoc3)nc2N)c1 [Example 33]
> 22.7 µM
3. COc1ccc(Cl)c(-c2ncc(NC(=O)c3ccon3)nc2N)c1 [Example 37]
> 29.4 µM

**Query** Query: IC50; subject: Cc1nonc1C(=O)Nc1cnc(-c2ccccc2Cl)c(N)n1 [Example 55]
**Result** > 21.5 µM

**Query** Lookup Cn1nccc1C(=O)Nc1cnc(-c2ccccc2Cl)c(N)n1 [Example 57]
**Result** > 28.4 µM
